Would you mind telling me the reported PT of each entry?
- Species on record: Rattus norvegicus
- PROCEDURE TEXT: Open TG-GATES - Regimen: Single
- Assay type: toxicity, organism-based, Sprague-Dawley
- Parameters: regimen Single, gender Male, age 6 weeks
- CONDITION PARAMETERS: in vivo, po, 1000 mg/kg, 24 h, tissue Blood, route gavage, dose level High
Write the number in s without appending the unit.

Query block: Quick one: give measured PT for COC1=CC(=O)C[C@@H](C)[C@]12Oc1c(Cl)c(OC)cc(OC)c1C2=O [GRISEOFULVIN]
Result block: 13

Query block: Quick one: give measured PT for NC(N)=Nc1nc(CSCCC(N)=NS(N)(=O)=O)cs1 [FAMOTIDINE]
Result block: 12.3

Query block: Quick one: give measured PT for COc1ccc2[nH]c([S+]([O-])Cc3ncc(C)c(OC)c3C)nc2c1 (centres undefined) [OMEPRAZOLE]
Result block: 13.1

Query block: Quick one: give measured PT for CCOC(=O)CCC(=O)O[C@H]1[C@H](O[C@@H]2[C@@H](C)[C@H](O[C@H]3C[C@@](C)(OC)[C@@H](O)[C@H](C)O3)[C@@H](C)C(=O)O[C@H](CC)[C@@](C)(O)[C@H](O)[C@@H](C)C(=O)[C@H](C)C[C@@]2(C)O)O[C@H](C)C[C@@H]1N(C)C [ERYTHROMYCIN ETHYLSUCCINATE]
Result block: 16.3
